target: hERG channel (Homo sapiens, UniProt Q12809); construct: host or cells: HEK293; assay: hERG channel inhibition (electrophysiology, hERG-transfected HEK293 cells); assay type: cell-based; details: 10 μM compound
Sequence (Q12809 whole entry): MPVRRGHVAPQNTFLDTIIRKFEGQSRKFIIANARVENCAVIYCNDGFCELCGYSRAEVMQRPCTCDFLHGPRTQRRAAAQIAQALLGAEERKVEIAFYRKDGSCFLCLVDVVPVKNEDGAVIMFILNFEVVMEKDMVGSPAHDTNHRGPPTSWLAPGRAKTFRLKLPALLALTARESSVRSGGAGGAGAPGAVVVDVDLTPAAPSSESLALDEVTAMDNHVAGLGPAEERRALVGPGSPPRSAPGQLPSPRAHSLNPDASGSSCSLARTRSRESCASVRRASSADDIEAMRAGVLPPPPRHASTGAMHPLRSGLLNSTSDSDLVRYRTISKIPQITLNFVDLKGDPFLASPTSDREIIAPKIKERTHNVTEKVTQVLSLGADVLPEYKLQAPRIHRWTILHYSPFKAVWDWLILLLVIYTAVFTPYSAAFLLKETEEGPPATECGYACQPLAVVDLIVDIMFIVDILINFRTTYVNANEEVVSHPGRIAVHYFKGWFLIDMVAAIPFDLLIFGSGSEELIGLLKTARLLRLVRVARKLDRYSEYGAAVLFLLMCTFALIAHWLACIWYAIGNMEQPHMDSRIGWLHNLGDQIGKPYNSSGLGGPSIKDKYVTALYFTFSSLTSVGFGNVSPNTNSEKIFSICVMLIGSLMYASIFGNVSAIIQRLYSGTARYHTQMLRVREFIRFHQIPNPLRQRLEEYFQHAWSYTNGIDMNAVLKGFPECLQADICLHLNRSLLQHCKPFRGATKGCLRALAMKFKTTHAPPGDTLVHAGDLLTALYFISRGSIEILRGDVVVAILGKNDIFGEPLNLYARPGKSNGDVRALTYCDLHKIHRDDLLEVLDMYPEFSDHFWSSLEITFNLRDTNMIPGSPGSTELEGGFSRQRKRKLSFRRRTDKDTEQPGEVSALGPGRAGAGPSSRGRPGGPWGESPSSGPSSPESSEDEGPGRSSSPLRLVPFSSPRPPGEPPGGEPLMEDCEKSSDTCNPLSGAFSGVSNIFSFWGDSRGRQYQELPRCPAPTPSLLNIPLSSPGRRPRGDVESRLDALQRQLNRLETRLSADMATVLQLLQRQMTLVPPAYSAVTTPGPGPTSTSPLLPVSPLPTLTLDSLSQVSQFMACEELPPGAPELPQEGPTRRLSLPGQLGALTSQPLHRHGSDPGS
readout-kind: % hERG inhibition in transfected HEK (n = 3) at 10 μM av (%)
All answers are understood in %, so give the number only.

See these solved cases before continuing.
>  <compound>
CCN(CC)CCCNC(=O)c1cccc(Nc2cccc(C(=O)Nc3ccncc3)c2)c1

>  <measured-result>
47

$$$$
>  <compound>
O=C(NCCCN1CCCC1)c1cccc(Nc2cccc(C(=O)Nc3ccncc3)c2)c1

>  <measured-result>
59

$$$$
>  <compound>
O=C(NCCCN1CCOCC1)c1cccc(Nc2cccc(C(=O)Nc3ccncc3)c2)c1

>  <measured-result>
54

$$$$

Problem: Any idea what its % hERG inhibition in transfected HEK (n = 3) at 10 μM av is? The compound is O=C(NCCCN1CCOCC1)c1cccc(Nc2cccc(/C=C/c3ccncc3)c2)c1 [Compound 583, reference compound]
Solution: 74

Problem: Any idea what its % hERG inhibition in transfected HEK (n = 3) at 10 μM av is? The compound is O=C(NCCCN1CCCC1)c1cccc(Nc2cccc(/C=C/c3ccncc3)c2)c1 [Compound 585, reference compound]
Solution: 77

Problem: Any idea what its % hERG inhibition in transfected HEK (n = 3) at 10 μM av is? The compound is CCN(CC)CCCNC(=O)c1cccc(Nc2cccc(/C=C/c3ccncc3)c2)c1 [Compound C88, reference compound]
Solution: 92

Problem: Any idea what its % hERG inhibition in transfected HEK (n = 3) at 10 μM av is? The compound is `CCN(CC)CCCNS(=O)(=O)c1cccc(Nc2cccc(C(=O)Nc3ccncc3)c2)c1`
Solution: 29

Problem: Any idea what its % hERG inhibition in transfected HEK (n = 3) at 10 μM av is? The compound is `CCN(CC)CCCNC(=O)c1cccc(Nc2cccc(C(=O)Nc3ccncc3)c2)n1`
Solution: 30
